# assayed target: Serine/threonine-protein kinase PAK 2 (Homo sapiens) (UniProt Q13177);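 also: reported values are mean inhibition of PAK2, averaged over measurements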
# Sequence (Q13177 whole entry): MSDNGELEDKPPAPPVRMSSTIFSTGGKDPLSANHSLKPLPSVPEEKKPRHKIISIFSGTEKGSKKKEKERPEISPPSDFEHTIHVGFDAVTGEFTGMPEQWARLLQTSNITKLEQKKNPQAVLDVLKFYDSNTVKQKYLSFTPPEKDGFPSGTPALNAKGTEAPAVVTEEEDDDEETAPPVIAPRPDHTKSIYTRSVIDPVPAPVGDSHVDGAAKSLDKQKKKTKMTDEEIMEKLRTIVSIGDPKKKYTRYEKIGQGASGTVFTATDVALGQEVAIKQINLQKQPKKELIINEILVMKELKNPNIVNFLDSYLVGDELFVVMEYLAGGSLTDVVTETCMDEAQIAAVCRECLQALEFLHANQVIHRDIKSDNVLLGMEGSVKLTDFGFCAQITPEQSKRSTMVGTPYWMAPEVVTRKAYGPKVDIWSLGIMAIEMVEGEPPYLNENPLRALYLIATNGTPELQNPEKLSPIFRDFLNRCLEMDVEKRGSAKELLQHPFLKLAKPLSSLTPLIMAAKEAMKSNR
# condition context: at 1 µM
endpoint label: inhibition
Write your answer as a measured quantity: the number, then the unit.

Sample records with inhibition:
CCn1c(-c2nonc2N)nc2c(C#CC(C)(C)O)ncc(OC3CCNCC3)c21 = 13.5%
N#Cc1c(NC(=O)c2ccc(F)cc2)sc2c1CCCC2 = 0.15%
CCn1cc(-c2ccnc3[nH]ccc23)c(-c2cccc(NC(=O)Nc3ccc(OCc4ccccc4)cc3)c2)n1 = -0.35%
c1ccc(COc2ccc(Nc3ncnc4ccc(-c5ccco5)cc34)cc2)cc1 = -0.42%

Kindly consider the entry below.
## Task Dear colleague, please send me the reported inhibition for CCn1c(-c2nonc2N)nc2cnc(Oc3cccc(NC(=O)c4ccc(N(C)C)cc4)c3)cc21 when you can.
## Result 0.22%
